Just for reference, PubChem BioAssay (NCATS) is where these values come from.

ASSAY: Quantitative High-Throughput drug screen in 47 multiple myeloma cell lines against the NCATS MIPE library collection: LP1_DSMZ cell viability assay (AID 1918982); note: nearly all actives have a fitted effect of over 35% in size
COND: LP1 myeloma viability, CellTiter-Glo ATP luminescence, 48 h; series mostly up to 45.8 µM
Records with an inconclusive call do not appear. Activity calls are given as the source filed them. Calls come from the whole dose curve; as a rule, active = well fitted cell-killing curve with a large enough effect; inconclusive = small, poorly fitted or top-dose-only effect, or effect the other way; inactive = no such curve, though single readings can be large or run the other way.
Outcomes: 1 (yes) (active), 0 (no) (inactive)

SMILES_STRING | GROUP
CC(C)(O)CCc1ccc(OCc2cc(-c3cccc(OC(F)F)c3)c3ncccc3c2)cc1 | 0 (no)
Cc1ccc(C(N)=O)cc1Nc1nccc(-c2cn(C(C)C)c3cnccc23)n1 | 1 (yes)
Cc1cc(CN2CCN(c3c(Br)cnc4nc(-c5ccc(N6CCN(C)CC6)cc5)[nH]c34)CC2)no1 | 1 (yes)
CC(C)(C)c1cnc(CSc2cnc(NC(=O)C3CCNCC3)s2)o1 | 1 (yes)
CCc1c2c(nc3ccc(O)cc13)-c1cc3c(c(=O)n1C2)COC(=O)[C@]3(O)CC | 1 (yes)
COC(=O)[C@]12CCC(C)(C)C[C@@H]1[C@@H]1C(=O)C=C3[C@@]4(C)C=C(C#N)C(=O)C(C)(C)[C@@H]4CC[C@@]3(C)[C@]1(C)CC2 | 1 (yes)
Cc1cn(-c2cc(NC(=O)c3ccc(C)c(Nc4nccc(-c5cccnc5)n4)c3)cc(C(F)(F)F)c2)cn1 | 1 (yes)
CC[C@H]1CN2CCc3cc(OC)c(OC)cc3[C@H]2C[C@@H]1C[C@@H]1NCCc2cc(OC)c(OC)cc21 | 1 (yes)
O=C(NCCCNc1nc(Nc2cccc(NC(=O)N3CCCC3)c2)ncc1I)c1cccs1 | 1 (yes)

###

In this section we review reported Potency values for a set of compounds.
ASSAY: Quantitative High-Throughput drug screen in 47 multiple myeloma cell lines against the NCATS MIPE library collection: LP1_DSMZ cell viability assay (AID 1918982); note: nearly all actives have a fitted effect of over 35% in size; note: potency is the fitted concentration of half-maximal effect
COND: LP1 myeloma viability, CellTiter-Glo ATP luminescence, 48 h; series mostly up to 45.8 µM
Results filed as inconclusive are left out. Calls of active or inactive are those of the source. Calls come from the whole dose curve; as a rule, active = well fitted cell-killing curve with a large enough effect; inconclusive = small, poorly fitted or top-dose-only effect, or effect the other way; inactive = no such curve, though single readings can be large or run the other way.

SMILES_STRING | Potency
CC(=O)Nc1nc(C)c(-c2ccc(Cl)c(S(=O)(=O)NCCO)c2)s1 | 3.32 µM (active)
COC(=O)Nc1nc2ccc(C(=O)c3ccc(F)cc3)cc2[nH]1 | 0.935 µM (active)
CC(C)(O)c1cc2nc(-c3cnc(N)nc3)nc(N3CCOCC3)c2s1 | 0.0132 µM (active)
CNC(=O)c1c(F)cccc1Nc1nc(Nc2cc3c(cc2OC)CCN3C(=O)CN(C)C)nc2[nH]ccc12 | 16.6 µM (active)
Nc1ncnc2c1c(-c1cnc3[nH]ccc3c1)nn2C1CCCC1 | 0.148 µM (active)

###

ASSAY: Quantitative High-Throughput drug screen in 47 multiple myeloma cell lines against the NCATS MIPE library collection: KMS12BM_JCRB cell viability assay (AID 1918971); note: nearly all actives have a fitted effect of over 35% in size
COND: KMS12BM myeloma viability, CellTiter-Glo ATP, 48 h; series mostly up to 45.8 µM
Text: PI: Beverly A. Mock Ph.D. Laboratory of Cancer Biology and Genetics, Center for Cancer Research, National Cancer Institute, National Institute of Health, Bethesda, Maryland […] 5; Detector; 425V; Luminescence; Viewlux PerkinElmer. […] 1. […] Briefly, the corresponding myeloma cell lines were screened in 1,536-well plates with 500 cells, 5-uL per well for inhibition of cell viability (assessed by measuring ATP levels with CellTiterGlo). […]
Records with an inconclusive call do not appear. The source made the active and inactive calls. Calls follow the shape of the dose curve; as a rule, active = well fitted cell-killing curve with a large enough effect; inconclusive = small, poorly fitted or top-dose-only effect, or effect the other way; inactive = no such curve, though single readings can be large or run the other way.
Outcomes: 1.0 = active, 0.0 = inactive

SMILES_STRING | GROUP
CN(C)CC=CC(=O)Nc1cc2c(Nc3ccc(F)c(Cl)c3)ncnc2cc1O[C@H]1CCOC1 | 1.0
Nc1ccccc1NC(=O)c1ccc(CNc2nccc(-c3cccnc3)n2)cc1 | 1.0
O=C(Nc1cc(C(F)(F)F)cc(C(F)(F)F)c1)c1cc(Cl)ccc1O | 1.0
c1ccc2c(CCNc3ccc(Nc4ccncc4)cc3)c[nH]c2c1 | 1.0
Nc1ccccc1NC(=O)c1ccc(CNC(=O)OCc2cccnc2)cc1 | 1.0
CNC(=O)c1nn(C)c2c1C(C)(C)Cc1cnc(Nc3ccc(N4CCN(C)CC4)cc3)nc1-2 | 1.0
COc1cc(C(=O)NS(=O)(=O)c2ccccc2C)ccc1Cc1cn(C)c2ccc(NC(=O)OC3CCCC3)cc12 | 1.0
CC(=O)OCC(=O)[C@@]1(O)[C@H](C)C[C@H]2[C@@H]3C=C(C)C4=Cc5c(cnn5-c5ccccc5)C[C@]4(C)[C@@H]3[C@@H](O)C[C@@]21C | 1.0
COc1c(N2C[C@@H]3CCCN[C@H]3C2)c(F)cc2c(=O)c(C(=O)O)cn(C3CC3)c12 | 1.0
COc1cc2ncnc(Nc3ccc(F)c(Cl)c3)c2cc1NC(=O)C=CCN1CCCCC1 | 1.0
Cc1cc(Nc2ncnc3ccc(-c4ccc(CNCCS(C)(=O)=O)o4)cc23)ccc1Oc1ccn2ncnc2c1 | 1.0
NC(=O)Nc1cc(-c2cccc(F)c2)sc1C(=O)N[C@H]1CCCNC1 | 1.0
COC(=O)c1ccc2c(C(=Nc3ccc(N(C)C(=O)CN4CCN(C)CC4)cc3)c3ccccc3)c(O)[nH]c2c1 | 1.0
Nc1cccc(-c2cc3c(Oc4cccc(O)c4)ncnc3[nH]2)c1 | 1.0
Nc1nccc(Oc2ccc(NC(=O)c3c[nH]cc(-c4ccc(F)cc4)c3=O)cc2F)c1Cl | 1.0
c1nc2nc(Nc3ccc(N4CCOCC4)cc3)nc(NC3CCCCC3)c2[nH]1 | 1.0
O=C(O)CO.[NH2-].[NH2-].[Pt+2] | 0.0
CC(C)(C)c1cnc(CSc2cnc(NC(=O)C3CCNCC3)s2)o1 | 1.0
O=C(O)c1ccc2cc(-c3ccc(O)c(C45CC6CC(CC(C6)C4)C5)c3)ccc2c1 | 1.0

###

Tested on: KB-3-1
ASSAY: Cytotoxic Profiling of Annotated Libraries Using Quantitative High-Throughput Screening (AID 1296008); note: nearly all actives have a fitted effect of over 60% in size
COND: Five cell lines viability, CellTiter-Glo ATP luminescence, 48-72 h
Records with an inconclusive call do not appear. Activity calls are given as the source filed them. Calls come from the whole dose curve; as a rule, active = well fitted inhibition curve with a large enough effect; inconclusive = small, poorly fitted or top-dose-only effect; inactive = flat fitted curve, though single readings scatter.
Outcomes: active, inactive

SMILES_STRING | GROUP
CC(C)c1ccc(Cn2ccc3c4c(N)nc(NC5CC5)nc4ccc32)cc1 | active
Cc1nc(N)ncc1-c1nc(N2CCOCC2)c2sc(C(C)(C)O)cc2n1 | active
Clc1cccc(-c2nnnn2Cc2cccnc2)c1Cl | inactive
CN(C)c1nc(Cc2ccc(NC(=O)c3ccc4ccccc4c3)cc2)nc(Cl)c1CC(=O)O | inactive
COc1cc2nccc(Oc3ccc(NC(=O)C4(C(=O)Nc5ccc(F)cc5)CC4)cc3)c2cc1OC | active

###

ASSAY: qHTS of pediatric cancer cell lines to identify multiple opportunities for drug repurposing: Primary screen for LAN-5 cells (AID 1347100)
COND: LAN-5 neuroblastoma viability, CellTiter-Glo luminescence, 48 h; series mostly up to 46 µM
Inconclusive results are not listed. Calls of active or inactive are those of the source. Calls follow the shape of the dose curve; as a rule, active = well fitted cell-killing curve with a large enough effect; inconclusive = small, poorly fitted or top-dose-only effect; inactive = no such curve, though single readings can be large or run the other way.
Outcomes: T (active), F (inactive)

SMILES_STRING | GROUP
CCC[C@H](NC(=O)C(C#N)=Cc1cccc(Br)n1)c1ccccc1 | T
C=CC(=O)Nc1cc2c(Nc3ccc(F)c(Cl)c3)ncnc2cc1OCCCN1CCOCC1 | T
COC(=O)[C@]12CCC(C)(C)C[C@@H]1[C@@H]1C(=O)C=C3[C@@]4(C)C=C(C#N)C(=O)C(C)(C)[C@@H]4CC[C@@]3(C)[C@]1(C)CC2 | T
Cc1cc(C(=O)N2CCN(c3cccc(Cl)c3)CC2)n(-c2ccccc2)n1 | T
COC(=O)c1ccc2c(C(=Nc3ccc(N(C)C(=O)CN4CCN(C)CC4)cc3)c3ccccc3)c(O)[nH]c2c1 | T
CN(C)c1nc(Cc2ccc(NC(=O)c3ccc4ccccc4c3)cc2)nc(Cl)c1CC(=O)O | F
O=C(O)CO.[NH2-].[NH2-].[Pt+2] | F
Clc1ccc2ncc(-c3cccc(NC4CNC4)n3)n2c1 | T
COc1cc2c(cc1-c1c(C)noc1C)ncc1[nH]c(=O)n([C@H](C)c3ccccn3)c12 | T

###

ASSAY: qHTS of pediatric cancer cell lines to identify multiple opportunities for drug repurposing: Confirmatory screen for Rh41 cells (AID 1347123);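 note: 48 h compound exposure; nearly all actives have a fitted effect of over 60% in size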
COND: Rh41 rhabdomyosarcoma cells, viability/cytotoxicity qHTS; series mostly up to 45.9 µM
Results filed as inconclusive are left out. Calls of active or inactive are those of the source. Calls follow the shape of the dose curve; as a rule, active = well fitted cell-killing curve with a large enough effect; inconclusive = small, poorly fitted or top-dose-only effect; inactive = no such curve, though single readings can be large or run the other way.
Outcomes: active, inactive

SMILES_STRING | GROUP
CC=CC1=C(C(=O)O)N2C(=O)[C@H](NC(=O)[C@H](N)c3ccc(O)cc3)[C@@H]2SC1 | inactive
Cc1cc(Nc2cc(N3CCN(C)CC3)nc(Sc3ccc(NC(=O)C4CC4)cc3)n2)n[nH]1 | active
CC(C)[C@H](C(=O)Nc1ccc(C(=O)NO)cc1)c1ccccc1 | active
Cc1c(Cn2c(C)nc3c(C(=O)O)cc(N4CCOCC4)cc32)cccc1C(F)(F)F | inactive
CCC(=C(c1ccccc1)c1ccc(OCCN(C)C)cc1)c1ccccc1 | inactive
CCc1c2c(nc3ccc(O)cc13)-c1cc3c(c(=O)n1C2)COC(=O)[C@]3(O)CC | active
C[C@@H](Oc1cc(-n2cnc3ccc(CN4CCN(C)CC4)cc32)sc1C(N)=O)c1ccccc1C(F)(F)F | active
CC(=O)Nc1nc(C)c(-c2ccc(Cl)c(S(=O)(=O)NCCO)c2)s1 | active
CN1CCN(c2cc(C(=O)Nc3ccc4c(c3)-c3c(c(C(N)=O)nn3-c3ccc(F)cc3)CC4)c(Cl)cn2)CC1 | active
Cc1cc(N2CCOCC2)cc2[nH]c(-c3c(NC[C@@H](O)c4cccc(Cl)c4)cc[nH]c3=O)nc12 | active
O=C(C=Cc1cccnc1)NCCCCC1CCN(C(=O)c2ccccc2)CC1 | inactive
CC(C)CC(=O)Nc1n[nH]c2c1CN(C(=O)C1CCN(C)CC1)C2(C)C | active
O=C(Cc1ccc(-c2ccc(OCCN3CCOCC3)cc2)cn1)NCc1ccccc1 | active
Cc1ccc(-c2ncn(-c3ccc(Nc4nccc(-c5cccc(N6CCOCC6)c5)n4)cc3)n2)cn1 | active
CC=C1NC(=O)[C@H]2CSSCCC=C[C@H](CC(=O)N[C@H](C(C)C)C(=O)N2)OC(=O)[C@H](C(C)C)NC1=O | inactive
O=c1[nH]nc(Sc2ncc([N+](=O)[O-])s2)n1-c1ccc2c(c1)OCCO2 | active
Cc1c(NC(=O)OC[C@@H]2COCCN2)cn2ncnc(Nc3ccc4c(cnn4Cc4cccc(F)c4)c3)c12 | active
CC(C)C[C@H](NC(=O)CNC(=O)c1cc(Cl)ccc1Cl)B(O)O | active
CCNC(=O)Nc1ccc2ncc(Nc3ccc(C)cc3)nc2n1 | inactive
